# study.target: DNA polymerase β (pol β) (Homo sapiens, UniProt P06746)
# measurement.notes: X-ray crystal structure of ternary complex with DNA
measurement.label: Ki (µM)

A. Cc1cn([C@H]2C[C@H](O)[C@@H](COP(=O)(O)CP(=O)(O)NP(=O)(O)O)O2)c(=O)[nH]c1=O [1a, (α,β)-CH2-(β,γ)-NH-dTTP]
B. Cc1cn([C@H]2C[C@H](O)[C@@H](COP(=O)(O)NP(=O)(O)CP(=O)(O)O)O2)c(=O)[nH]c1=O [1b, (α,β)-NH-(β,γ)-CH2-dTTP]
Determine, for A and B , which has the greater value of Ki. Indicate which entry you chose by stating its label. B
(B: 23 µM, A: 2.7 µM)
